Would you kindly list IC50 for each of these compounds?
- targetOrSystem: liver carnitine palmitoyl transferase 1 (L-CPT1) (Homo sapiens)
- Construct: made in house; host or cells: Pichia pastoris strain X-33 (crude cell-free extract)
- Sequence (P50416 whole entry): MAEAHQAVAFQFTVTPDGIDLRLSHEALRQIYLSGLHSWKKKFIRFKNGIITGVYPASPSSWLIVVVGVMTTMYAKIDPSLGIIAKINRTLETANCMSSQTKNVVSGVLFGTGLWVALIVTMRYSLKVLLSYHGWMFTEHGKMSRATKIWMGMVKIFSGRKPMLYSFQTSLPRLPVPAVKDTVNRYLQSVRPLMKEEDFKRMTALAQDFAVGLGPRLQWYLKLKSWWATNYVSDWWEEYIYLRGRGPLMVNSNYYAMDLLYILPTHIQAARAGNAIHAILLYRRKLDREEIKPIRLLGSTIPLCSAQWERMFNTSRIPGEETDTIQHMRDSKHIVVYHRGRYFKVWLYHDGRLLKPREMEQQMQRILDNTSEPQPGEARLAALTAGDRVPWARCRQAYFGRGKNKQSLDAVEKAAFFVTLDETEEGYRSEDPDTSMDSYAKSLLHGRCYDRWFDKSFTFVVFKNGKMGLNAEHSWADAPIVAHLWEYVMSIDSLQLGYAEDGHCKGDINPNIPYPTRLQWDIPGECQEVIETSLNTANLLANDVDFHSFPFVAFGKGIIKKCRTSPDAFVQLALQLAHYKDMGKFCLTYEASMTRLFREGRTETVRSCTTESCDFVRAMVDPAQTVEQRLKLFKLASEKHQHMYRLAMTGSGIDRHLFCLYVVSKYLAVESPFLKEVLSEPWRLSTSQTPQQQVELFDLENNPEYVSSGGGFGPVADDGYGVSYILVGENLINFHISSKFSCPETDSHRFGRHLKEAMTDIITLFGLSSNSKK
- assayOverview: L-CPT1 inhibition, spectrophotometric CPT activity assay with DTNB (Ellman's reagent)
- Assay type: biochemical
- cond: human liver CPT1 expressed in P. pastoris, cell extracts; carnitine 500 μM, palmitoyl-CoA 80 μM, DTNB 300 μM, pH 7.4
Answer in nM, number only, no unit symbol.

Hello, I am looking for reported IC50 with liver carnitine palmitoyl transferase 1 (L-CPT1) (Homo sapiens) for Cc1c(-c2csc([C@H]3CCCCN3C(=O)COc3ccccc3)n2)[nH]c2ccccc12 . Could you help?
330

Hello, I am looking for reported IC50 with liver carnitine palmitoyl transferase 1 (L-CPT1) (Homo sapiens) for CN(C)c1ccc(-c2csc([C@H]3CCCCN3C(=O)COc3ccccc3)n2)cc1 . Could you help?
420

Hello, I am looking for reported IC50 with liver carnitine palmitoyl transferase 1 (L-CPT1) (Homo sapiens) for O=C(COc1ccccc1)N1CCCC[C@@H]1c1csc(-c2cnccn2)n1 . Could you help?
224

Hello, I am looking for reported IC50 with liver carnitine palmitoyl transferase 1 (L-CPT1) (Homo sapiens) for O=C(COc1ccccc1)N1CCCC[C@@H]1c1csc(-c2ccc(C(F)(F)F)nc2)n1 . Could you help?
313
